Test system: BMSC (primary human bone marrow mesenchymal stromal cells)
Experiment: absolute EC50 for viability; higher = less sensitive
quantity_name: absolute EC50 for viability

O=C(Nc1cnn2ccc(N3CCC[C@@H]3c3cc(F)ccc3F)nc12)N1CC[C@H](O)C1 [Larotrectinib]: > 1 µM
O=c1[nH]cc(F)c(=O)[nH]1 [Fluorouracil]: > 10 µM
Nc1cc(COc2c(Cl)cc(C[C@H](N)C(=O)O)cc2Cl)c2oc(-c3ccccc3)nc2c1 [JPH203]: > 5 µM
COc1cc2c(cc1OCCCN1CCCC1)N=C(N)C21CCC1 [A-366]: > 25 µM

Now consider the entry below.
Measured absolute EC50 for viability of COc1cc2ncnc(Nc3ccc(F)c(Cl)c3)c2cc1NC(=O)/C=C/CN1CCCCC1 [Dacomitinib] : > 1 µM
